experiment: yeast display, Sf9 membrane polyspecificity reagent, FACS + sequencing; frameworks hold sequencing errors

record_sequence	polyreactivity (PSR sort gate)
QVQLVESGAGLVQAGGSLRLSWAASGRIFTGNGMGWYRQAPGKEMELVAGIRNGGGRTYYADSVKGRFTISRDNAKNTVYLKMNSLKPEDTAVYYCAVRIYVRNSPGERLDKYDYWGQGTQVTVSS	high polyreactivity
QVQLVESGGGLVQAGGSLRLSCAASGRIFYFNARGWYRQAPGKERELVAAITSGGSTYYADSVKGRFTISRDNAKNTVYLQMNSLKPEDTAVYYCATDWPHWRYVYWFDYWGQGTQVTVSS	low polyreactivity
QVQLVESGGGLVQAGGSLRLSCAASGIIFYYYAMGWYRQAPGTERELVARISLSGGSTYYADSVKGRFTISRDNAKNTVYLQMNSLKPEDTAVYYCATRSWYKRQTYDYWGQGTQVTVSS	high polyreactivity
QVQLVESGGGLVQAGGSLRLSCAASGRTFAHNAMGWYRQAPGKERELVAAITWSGGTTYYADSVKGRFTISRDNAKNTVYLQMNSLKPEDTAVYYCNTYSYQPDPKYDYWGQGTQVTVSS	low polyreactivity
QVQLVESGGGLVQAGGSLRLSSAASGFTFAYNDLGWSRQAPGKERELVATITNSGASTSYADSEKGRFTISRDNAKNTVYLQMNSLKPEDTAVYYCNVGLWRYVRFTGRYYPYDYWGQGTQVTVSS	high polyreactivity

----------
assay: yeast display, Sf9 membrane polyspecificity reagent, FACS + sequencing; frameworks hold sequencing errors

record_sequence	polyreactivity (PSR sort gate)
QVQLVESGGGLVQAGGSLRLSCAASGIIIDYNAMGWYRQAHGKERELVAAISSRGGSTYYADSVKGRFTISRDNAKNTVYLQMNSLKPEDTAVYYCAKVIGKYVNSYYWGQGTQVTVSS	low polyreactivity
QDQLVESGGGLVQAGGSLRLSSAASGRIFKRYAMGWYIQAPGKERELVAAITYNSGSTYYADSVKGRFTISRDNAKNTVYLQMNSLKPEDTAVFYCAAEKWSDQSPRGDYWGQGTQVTVSS	low polyreactivity
QVQLVESGGGLVQAGGSLRVSCAASGFISGYYTMRWYRQAPGKEWELVAVINSGGSTYYADSVKGRFTISRDNAKNTVYLQMNSLKPEDTAVYYCAKLGGKYSRYYYWGQGTQVTVSS	low polyreactivity
QVQLVESGGGLVQAGGSLRLSCAASGRTFKFNTMGWYRQAPGKEREVVAAISWTGAITHYADSVKGRFTISRDNAKNTVYLQMNSLKPEDTAVYYCNSDPYRRIYNYWGQGTQVTVSS	low polyreactivity

----------
experiment: yeast display, Sf9 membrane polyspecificity reagent, FACS + sequencing; frameworks hold sequencing errors

record_sequence	polyreactivity (PSR sort gate)
QVQLVESGGGLVQAGGSLRLSCAASGSTFNRYAMGWYRQAHGKERELVAGISYRGGTYYSDSVKGRFTISRDNAKNTVYLQMNSLKPEDTAVYYCNVVRRGTTSYDDYEYWGQGTQVTVSS	high polyreactivity
QVQLVESGGGLVQAGGSLRLSCAASGSTFAPNAMGWYRQAPGKERELVAAIRTNTGSTYYADSVKGRFTISRDNAKNTVYLQMNSLKPEDTAVYYCAAVFSGFYYAYDYWGQGTQVTVSS	high polyreactivity
QVQLVESGGGLVQPGGRLRLSCEASGIFTDYAMGCYRQEPGKERELVAAISWRGGSTYFADSVKGRFTISRDNAKKTVYLQMHSLKPEDTAVFYCAAGVRGGGGRYRYGYWGQGTQVTVSS	high polyreactivity
QVQLVESGGGLVQAGGSLRLSCAASGITFPYYVMGWYRQAPGKERELVAAISKSVGRTYYADSVKGRFTISRDNAKNTVYLQMNSLKPEDTAVYYCAAYSSYYVHRFQHYDYWGQGTQVTVSS	high polyreactivity
QVHLVESGGGLVQAGGRLRLSCAASGSIFRLYAMGWYRQAPGKERELVARITTGGSTNYADSVKGRFTISLDNAKNTVYFQMNSLKPEDTAVYYCNGGVLVTAQMGWQKYSYWGQGSQVTVSS	high polyreactivity
QVQLVESGGGLVQAGGSLRLICAASGSNFWGNTMGWYRQAPGKERELVATISRRGGSTNYADSVKGRFTISRDNAKNTVYLQMNSLKPEDTAVYYCAAVTIYRSYRGNPYYYWGQGTQVTVSS	high polyreactivity
QVQLVESGGGSVQAGGSLRLSCAASGIIFWYYTMGWYRQAPGKERELVAAISWSSGITYYADSVKGRFTISRDNAKNTVYLQMNSLKPEDTAVYYCAAAVSPHSEGFGEYNYWGQGTQVTVSS	low polyreactivity
QVQLVESGGGLVQAGGRLRLSCAASGRIFKPNAMGSYRQAPGKEREFVARITRNTGSTYYADSVKGRFSISRDNEKNTVYLQMNSLKPEDNAVYDCAAGAPSYYYYWGHGTQVTVSS	high polyreactivity
QFQLVESGGGLVQAGGSLRLSCAASGSIFRAYAMGRYRQATGKERELVADISRSGGSTYYADSVKGRFTISRDNAKNTVYLQMNSLTQEVTAVYYCAAVFYLYSNLYGEYDYWGQGTQVTVSS	low polyreactivity
QVQLVESGAGLVQAGGSLRLICAASGSTSTTYTMGWYRQAPGKERELVAAISYSGGSTYYADSVKGRFTISRDNAKNTVYLQMNSLKPEDTAVYYCAAQSFVGWREYESWGQGTQVTVSS	high polyreactivity
QVQLGESGGGLVQAGGSLRLSCAASGLTFPVYPMGWYRQAPGKEREFVTAITYNGGRTYYADSVKGRFTISRDNAKNTVYLQMNSLKPEDTAVYYCNAARSRGANLVPPYRLYYWGQGTQVTVSS	low polyreactivity

----------
experiment: yeast display, Sf9 membrane polyspecificity reagent, FACS + sequencing; frameworks hold sequencing errors

record_sequence	polyreactivity (PSR sort gate)
QVHLVESGGGLVQAGGSLRLSCADSGSTFVAYAMGWYRQAPGKERDLVAAISKSGVRTYYADSVKGRFTISRDNAKNTVYLVMISLKPEDNAVYVCAADSGDLWGPFGYWGQGTQVTVSS	low polyreactivity
QVQLVESGGGLVQAGGSLRLSCAASGSTFARYVMGWYRQAPGKDRELVAAIRSTGGRTYYADSVKGRFTISRDNAKNTVYLQMNSLKPEDTAVYYCAAAFGQYSRKRFDYWGQGTQVTVSS	high polyreactivity
QVQLVESGGGLVQAGGSLRLSSAASGRIFRKYAMGWYRQAPGKERELVAAISGSGVSTYYADSVKGRFTISRDNAKNTVYLQMNSLKPEDTAVYYCNARIILRGYKSYRYDYWGQGTQVTVSS	high polyreactivity
QVQLQVSGGVLVQAGGSLRLTCAASGSIFLTSEMGWYRQAPGKERELVAAIATGTSTNYADSVKGRFTISRDNAKNTVYLQMNSLKPEDTAVYYCETYHYWGQGTQVTVSS	low polyreactivity
QVQLVESGGGLVQAGGSLRLSCAASGSTFINYAKGWYRHAPGKERELVAAYADSVKGRFSISRDNAKNTVYLQMNSLKPEDTAVYYCAARGTIYVLGVPARPVPDGDYWGQGTQVTVSS	low polyreactivity
QVQLVESGGGLVQAGGSLRLSCAASGSIFYPYAMGWYRQAPGKERELVAAITWSGGDTYYADSVKGRFTISRDKAKYTDYLQMNSLKPEDTAVYYSAAEWNVSPYDYWGQGTQVTVSS	low polyreactivity
QGQLVESGGGLVQAGGSLRLSCAASGFTFNYYAMGWSRQAPGKERELVAAISWRGGSTSYADSVKGRFTISRDNAKNTVYLQMNSLKPEDTAVYYCNAGYSGIYYFAGDYWGQGTQVTVSS	high polyreactivity
QVQLVESGGGLVQAGGSLRLSCAASGSIFYHNPMGWYRQAPGKERELVAAITSRGGRTTYADSVKGRFTISRDNAKNTVYLQMNSLKPEDTAVYYCNAVYTGYSYISRVDYWGQGTQVTVSS	low polyreactivity
QVQLVESGGGLVQAGGSLRLSCAASGSIFESYAMGWYRQAPGKEWELVASISGGGSTYYADSVKGRFTISRDNAKNTVYLQMNSLKPEDTAVYYCATVYVRYRQSRLIRYGYWVQGTQVTVSS	high polyreactivity
QVQLVESGGGLVQAGGSLRLSCAASGLTFGWYAMGWYRQAPGKERELVASITRRSGSTYYADSVKGRFTISRDNAKNTVYLQMNSLKPEDTAVYYCNAVPGYVYYYQYWGQGTQVTVSS	high polyreactivity
QVQLVESGGGLVQAGGSLRLSCAASGNILATNCMGWYRQAPGMERELVAAITFSGDTTYYADSVKGRFTISRDNAKNTVYLQMNSLKPEDTAVYYCNAVSFIVNGGYDGDYWGQGTQVTVSS	low polyreactivity
QDHLVESGGGLVQAGGSLRLSCAASGRIFSYYVMGWYRQAPGKERELVAAITSGCSTNYADSVKGRFTISRDNAKNNVYLQMNSLKPEDTAVYYFNRAYTYINRLYGYWGQGTQVTVSS	high polyreactivity
QVQLVESGGGLVQAGGSLRLSCAASGSTFVSYAMGWYRQAPGKERELVAAISISDSSTYYADSVKGRFSISRDNAKNTVYLQMNSLKPEDTAVYYCNRYDFWGQGTQVTVSS	low polyreactivity
QVQLVESGGGLVQAGGSLRLSCAASGSTFDVNAMGWYRQAPGKERELVAAISFSGGSTYYADSVKGRFTISRDNAKNTVYLQMNSLKPEDTAVYYCADYDYWGQGTQVTVSS	low polyreactivity
QVQLVESGGGLVQAGGSLRLSCAASGSTFSVYAMGWYRQAPGKERELVAAITSGGSTNYADSVKGRFTISRDNAKNTVYLQMNSLKPEDTAVYYCAAYLYDTIYTSYREYDYWGQGTQVTVSS	low polyreactivity
QVQLVESGGGLVQAGGILRLSCAASGSIFWYYARGWYRQARGKEREFVADITFSGGSTYYADSVNGRFTISRDNAKNTVYIQMNSLKPEDTAVYYCARDREPLTPVLGNYWGQGTQVTVSS	low polyreactivity
QVQLVESGGGLVQAGGSLRLSCAASGRTFWYYAMGWYRPAPGKERELVATITGGARTTYADSVKGRFTISRDNAKNTVYLQMNSLKPEDTAVYYCARARNSVKRGYYYWGQGTQVTVSS	high polyreactivity
QVQLVESGGGLVQAGGSLRLSCAASGRISVFYAMGWYRQAPGKEMELGAAITRSGTTKYADSVKGRFTISRDNAKNTVYLQMNSLKPEDTAVYYCAARSVYYKFGYYYWGQGSQVTVSS	high polyreactivity
QVQLVESGGGLVQAGGSLRLSCAASGFIFKYYAMGCYRQAPGKERELVAVISRSGGGTYYADSVKGRYTISRDHAKNTVYLQMNSLKTEDTAVYYCAAERSSGFDYWGQGTQVTVSS	high polyreactivity
QVHLVESGGGLVQAGGSLRLSCAASGSIFALYAMGWYRQAPGKERELVARISYSGGRTYYADSVKGRFTISRDNAKNTVYLQMNSLKPEDTAVYYCATRSFKWSFVGYDYWGQGTQVTVSS	high polyreactivity
QVQLVESGGGLVQAGGSLRLSCAASGGTFVSYVMGWYRQAPGKEREWVAAISVSGGRTYYADSVKGRFTISRDNAKNTVYLQMNSLKPEDTAVYYCAADSVVVGSPGNDYWGQGTQVTVSS	high polyreactivity
